# Tgt: pooled human IgG (human IgG1,2,3 and 4)
For each entry below, report its Enzyme Activity Endpoint Assay (purified): Fc value.
Dear colleague, please return just the value in ng/µL, with no unit written.

Query block: Would you kindly share the measured Enzyme Activity Endpoint Assay (purified): Fc for PRT-346 (protein) MSQTEDSESLQRLRDIEDFQAEKEMQNVVYTKWLDGVDVKDHDFRKIVDGNSAYYATPLLNGRGFYDINKDFNRDSDKCAAAVAANMFHYWLDINRDNVDRFLRQNPEKHGIIELPDGQLKLSDFLNTYESDHGYRDKSKLFDFISNNFNGPVWTDKLLDNYINGYAYNYKYGRTIEDPTKNTSKINFFKEVFNEKILTNNHSIRNQNEFSVLLSEALYTGKAIGLSYGPAGLRHSLGHIISVWGADLDADGNVVAIYVTDSDDKKLTIGDERVGLKRYKISTDDENRLRLTAYEETHNTGGQVRGLWTLDTGKYAWADYFDKTEQTGTDQAEQ ?
Result block: 217

Query block: Would you kindly share the measured Enzyme Activity Endpoint Assay (purified): Fc for PRT-361 (protein) MSQTEDSESLQRLRDIEDFQAEKKKQNVVYTKWLDGVDVKDHDFRKIVDGNSAYYATPLLNGRGFYDINKDFNRDSDKCAAAVAANMFHYWLDRNRDNVDRFLRQNPEKHGIIELPDGQLKLSDFLNTYESDDGYRDKSKLFDFISENFNGPVWTDKLLDNYINGYAYNYKYGRTIEDPTKNTSKINFFKEVFNEKILTNNHSIRNQNEFSVLLIEALYTGKAIGLSYGPAGLRHSLGHIISVWGADLDADGNVVAIYVTDSDDKKLTIGDERVGLKRYKISTDDEGRLRLTAYEETHNTGGQIRGLWTLDTGKQAWADYFDKTEQTGTDQAEQ ?
Result block: 243

Query block: Would you kindly share the measured Enzyme Activity Endpoint Assay (purified): Fc for PRT-344 (protein) MTITSVWTKGVTPPTPEDFRENNEDVLHAPYLANQGWYDITKAFDGKDNLLCGAATAGNMLHWWFDQNKEEIERYLKKHPEKQKIIFGNQELFDVKAAIDTKDSQTNSKLFDYFRDKAFPNLSARQLGVMPDLVLDMFINGYYLNLGKTQSTDVNRPYQDKDKRGGIFDAVFTRGDQTTLLTARHDLKNKGLNEISDLIKQELTEGKALALSHTYANVSINHVINLWGADFDAEGELEAIYVTDSDANPSIGMKKYFVGRNAHGKVAISAKKIEGDNIGAQVLGLFTLSTGQDQWQKLS ?
Result block: 335

Query block: Would you kindly share the measured Enzyme Activity Endpoint Assay (purified): Fc for PRT-459 (protein) MVTSVWTKGVTPPTDFIKGEDVFHAPYKAGQGWYDITKAFDGGDDLLCGAATAGNMLHWWFDQNKDQIERYLKEHPEKQKINFNGEQMFDVKEAIDTKDSQTNSELFNYFKEKAFPYLSTKHLGVFPDHVLDMFINGYRLSLTNHGPTPVKEGSKDPRGGIFDAVFTRGDQSKLLTSRHDFKEKTLKEISDLIKQELTEGKALGLSHTYANVRINHVINLWGADFDSEGNLKAIYVTDSDSNASIGMKKYFVGVNSAGKVAISAKEIKEDNIGAQVLGLFTLSTGQDIWNQTNLEHHHHHH ?
Result block: 193

Query block: Would you kindly share the measured Enzyme Activity Endpoint Assay (purified): Fc for PRT-517 (protein) MITSVWTKGVTPPTDFIKGEDVFHAPYKAGQGWYDITKAFDGGDDLLCGAATAGNMLHWWFDQNKEEIEAYLKKHPEKQKIMFGDQELLDVRKVINTKDSQTNSALFNYFKDKAFPNLSARRLGVMPDLVLDMFINGYYLNVYKTQTTDVNRQEQTKDRRGGIFDAVFGRGDQTKLLTERHDLKNKTLKEISDLIKQELTEGKALGLSHTYANVRINHVINLWGADFDSNGNLEAIYVTDSDSNASIGMKKYFVGVNSAGKVAISAKEIKEDNIGAQVLGLFTLSTGQKIWNKTNLEHHHHHH ?
Result block: 0

Query block: Would you kindly share the measured Enzyme Activity Endpoint Assay (purified): Fc for PRT-507 (protein) MITSVWTKGVTPPTDFIKGEDVFHAPYKAGQGWYDITKAFDGGDDLLCGAATAGNMLHWWFDQNKEEIEAYLKKHPEKQKIMFGDQELLDVRKVINTKDSQTNSALFNYFKDKAFPNLSARRLGVMPDLVLDMFINGYYLNVYKTQTTDVNRTYQTKDRRGGIFDAVFTRGDQSKLLTERHDFKEKTLKEISDLIKQELTEGKALGLSHTYANVRINHVINLWGADFDSNGNLEAIYVTDSDSNASIGMKKYFVGVNSAGKVAISAKEIKEDNIGAQVLGLFTLSTGQDIWNQTNLEHHHHHH ?
Result block: 355

Query block: Would you kindly share the measured Enzyme Activity Endpoint Assay (purified): Fc for PRT-450 (protein) MVTSVWTKGVTPPTDFRKIVDGNIAYYHAPYKAGQGWYDITKAFDGGDDLLCGAATAGNMLHWWFDQNKDQIEAYLKEHPEKQKINFNGEQMFDVKEAIDTKDDQTNSELFNYFKEKAFPYLSTKHLGVFPDHVLDMFINGYRLSLTNHGPTPVKEGSKDPRGGIFDAVFTRGDQSKLLTSRHDLKNKTLKEISDLIKQELTEGKALALSHTYANVRINHVINLWGADFDSNGNLEAIYVTDSDSNASIGMKKYFVGVNSAGKVAISAKEIEDDNIGAQVLGLFTLSTGQDIWNQTNLEHHHHHH ?
Result block: 282

Query block: Would you kindly share the measured Enzyme Activity Endpoint Assay (purified): Fc for PRT-485 (protein) MVTSVWTKGVTPPANFTQGEDVFHAPYKANQGWYDITKTFNGKDNLLCGAATAGNMLHWWFDQNKDQIEAYLKEHPEKQKIIFNNQELFDLKAAIDTKDDQTNSKLFEYFKEKAFPYLSTKHLGVFPDHVLDMFINGYRLSLTNHGPTPVKEGSKDKRGGIFDAVFTRGVQSKLLTSRHDLKNKTLKEISDLIKQELTEGKALALSHTYANVRINHVINLWGADFDSNGNLEAIYVTDSDTNASIGMKKYFVGVNSAGKVAISAKEIEDDNIGAQVLGLFTLSTGQDIWNQTNLEHHHHHH ?
Result block: 0

Where these numbers come from: patent US20250027068
